# Protocol details: Clearance in rat
# Format: ADME, organism-based
# Reported conditions: in vivo
Measure name: clearance (L/h/kg)
Report as a plain number; the unit L/h/kg is understood.

Query string: GET /values?readout=clearance&item= CC(C)(C)c1cc(NC(=O)Cn2cc(-c3ccc(-n4ccnc4)nc3)nn2)n(-c2cccnc2)n1
Result string: 0.96

###

# Test system: Plasma
# Protocol details: Plasma concentration in Sprague-Dawley rat Chung spinal nerve ligation model assessed as reversal of mechanical hypersensitivity at 100 mg/kg, po
# Assay type: ADME, organism-based
# Parameters: dose 100 mg/kg, route oral
# Reported conditions: in vivo
Measure name: concentration (µM)
Report as a plain number; the unit µM is understood.

Query string: GET /values?readout=concentration&item= CC(C)(C)c1cc(NC(=O)Cn2cc(-c3ccc(-n4ccnc4)nc3)nn2)n(-c2cccnc2)n1
Result string: 23

###

# Protocol details: Plasma concentration in Complete-Freunds adjuvant-induced Sprague-Dawley rat pain model at 10 mg/kg, po after 2 hrs
# Type: ADME, organism-based
# Design: dose 10 mg/kg, route oral
Measure name: concentration at 2 h (µM)
Report as a plain number; the unit µM is understood.

Query string: GET /values?readout=concentration at 2 h&item= CC(C)(C)c1cc(NC(=O)Cn2cc(-c3ccc(-n4ccnc4)nc3)nn2)n(-c2cccnc2)n1
Result string: 1

###

High affinity nerve growth factor receptor (Homo sapiens) data, read-out pIC50
Sequence (P04629 whole entry): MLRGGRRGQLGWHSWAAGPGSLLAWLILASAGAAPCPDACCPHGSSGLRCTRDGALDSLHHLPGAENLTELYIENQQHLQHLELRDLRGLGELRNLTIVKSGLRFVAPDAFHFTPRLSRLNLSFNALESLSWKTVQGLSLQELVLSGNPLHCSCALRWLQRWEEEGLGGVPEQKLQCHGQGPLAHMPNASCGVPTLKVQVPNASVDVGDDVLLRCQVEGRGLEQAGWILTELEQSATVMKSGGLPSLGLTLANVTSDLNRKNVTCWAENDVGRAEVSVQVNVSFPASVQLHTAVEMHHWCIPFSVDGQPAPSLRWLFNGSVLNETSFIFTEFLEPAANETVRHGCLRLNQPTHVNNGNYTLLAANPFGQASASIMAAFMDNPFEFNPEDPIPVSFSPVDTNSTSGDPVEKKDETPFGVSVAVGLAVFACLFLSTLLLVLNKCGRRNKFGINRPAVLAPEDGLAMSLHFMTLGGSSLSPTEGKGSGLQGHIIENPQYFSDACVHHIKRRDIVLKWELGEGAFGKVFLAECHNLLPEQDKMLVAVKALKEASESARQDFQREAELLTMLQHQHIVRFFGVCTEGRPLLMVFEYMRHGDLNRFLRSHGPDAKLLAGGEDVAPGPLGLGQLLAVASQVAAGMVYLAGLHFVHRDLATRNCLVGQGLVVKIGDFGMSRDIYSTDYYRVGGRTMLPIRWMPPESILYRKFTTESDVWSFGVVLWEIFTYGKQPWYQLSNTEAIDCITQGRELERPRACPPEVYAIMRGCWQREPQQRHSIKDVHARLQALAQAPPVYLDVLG
pIC50 (log units): -log10 of the concentration in mol/L.

These recorded examples may help you get a feel for the data.
> print(dat)
                                smiles.data  measured.result
1  CCOc1cccc(-c2nccc3c2cc(C(=O)O)n3CCOc2ccc(OC(F)(F)F)cc2)c1             7.23
2  CC(C)N(Cc1c[nH]c2ncccc12)C(=O)Nc1ccc(OC(F)(F)F)cc1             8.52
3  O=C(O)c1cc2cnccc2n1CCOc1ccc(OC(F)(F)F)cc1             4.80
4  CCOc1cccc(-c2nccc3c2cc(C(=O)O)n3CCOc2ccccc2)c1             6.96
5  CC(C)(C)c1cc(NC(=O)Cn2cc(-c3ccc(-n4ccnc4)nc3)nn2)n(-c2cccnc2)n1             8.15
6  CC(C)N(Cc1cccc(-c2nccs2)c1)C(=O)Nc1ccc(OC(F)(F)F)cc1             7.25

Query string: GET /values?readout=pIC50&item= CCOc1cccc(-c2nccc3c2cc(C(=O)O)n3CCOc2ccc(Cl)cc2)c1
Result string: 6.70

Query string: Please answer likewise for O=C(O)c1cc2cc(-c3cc[nH]n3)ccc2n1CCOc1ccc(OC(F)(F)F)cc1
Result string: 7.54

Query string: Please answer likewise for N#Cc1ccc2c(c1)cc(C(=O)O)n2CCOc1ccc(OC(F)(F)F)cc1
Result string: 6.82

Query string: Please answer likewise for Cc1cn(-c2ccc(-c3cn(CC(=O)Nc4cc(C5CC5)nn4-c4ccccc4)nn3)cc2)cn1
Result string: 8.05

###

# Protocol details: Plasma concentration in Complete-Freunds adjuvant-induced Sprague-Dawley rat pain model at 30 mg/kg, po after 2 hrs
# Assay type: ADME, organism-based
# Set-up: dose 30 mg/kg, route oral
Measure name: concentration at 2 h
// return the numeric value with its unit appended

Query string: GET /values?readout=concentration at 2 h&item= CC(C)(C)c1cc(NC(=O)Cn2cc(-c3ccc(-n4ccnc4)nc3)nn2)n(-c2cccnc2)n1
Result string: 4 µM
